Recorded values, source BindingDB's records for doi:10.1016/s0014-5793(96)01132-5.

assayed target: 5-hydroxytryptamine receptor 4 (Mus musculus)
Sequence (P97288 whole entry): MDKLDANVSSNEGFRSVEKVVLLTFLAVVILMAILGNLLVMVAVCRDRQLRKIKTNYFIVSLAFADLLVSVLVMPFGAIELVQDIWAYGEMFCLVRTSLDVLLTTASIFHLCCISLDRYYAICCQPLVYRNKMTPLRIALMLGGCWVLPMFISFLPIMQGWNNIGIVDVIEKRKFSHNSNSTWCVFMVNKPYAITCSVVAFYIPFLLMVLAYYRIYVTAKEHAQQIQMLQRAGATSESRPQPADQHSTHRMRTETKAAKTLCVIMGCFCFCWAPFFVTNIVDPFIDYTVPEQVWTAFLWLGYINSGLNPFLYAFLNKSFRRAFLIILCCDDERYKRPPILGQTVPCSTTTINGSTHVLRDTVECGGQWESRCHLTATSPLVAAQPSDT
endpoint: log10 of Ki (log10 of the value in nM)

compound | assayed target | log10 of Ki
COc1ccc2[nH]c(=O)n(C(=O)OC3CC4CCC(C3)N4C)c2c1 (centres undefined) | 5-hydroxytryptamine receptor 4 (Mus musculus) | 1.74
COc1cc(N)c(Cl)cc1C(=O)NC1CN2CCC1CC2 (centres undefined) [ZACOPRIDE,R] | 5-hydroxytryptamine receptor 4 (Mus musculus) | 2.28
COc1ccc2[nH]cc(CCN)c2c1 | 5-hydroxytryptamine receptor 4 (Mus musculus) | 2.36
COc1[nH]c2ccc(F)cc2c1C(=O)OCC1CCN(CCNS(C)(=O)=O)CC1 | 5-hydroxytryptamine receptor 4 (Mus musculus) | -1.70
COc1cc(N)c(Cl)cc1C(=O)NC1CCN(CCCC(=O)N2CCC(N(C)C)CC2)CC1OC (centres undefined) | 5-hydroxytryptamine receptor 4 (Mus musculus) | 0.46
COc1cc(N)c(Cl)cc1C(=O)NC1CCN(CCCOc2ccc(F)cc2)CC1OC (centres undefined) | 5-hydroxytryptamine receptor 4 (Mus musculus) | 1.51
CCn1c(=O)n(C(=O)NC2CC3CCC(C2)N3C)c2ccccc21 (centres undefined) | 5-hydroxytryptamine receptor 4 (Mus musculus) | 1.46
COc1cc(N)c(Cl)cc1C(=O)NC1CCN2CCCC1C2 (centres undefined) | 5-hydroxytryptamine receptor 4 (Mus musculus) | 2.12
CN1C2CCC1CC(OC(=O)c1c[nH]c3ccccc13)C2 (centres undefined) | 5-hydroxytryptamine receptor 4 (Mus musculus) | 1.94
CCN(CC)CCNC(=O)c1cc(Cl)c(N)cc1OC | 5-hydroxytryptamine receptor 4 (Mus musculus) | 2.95
CC(C)n1c(=O)n(C(=O)NC2C[C@H]3CC[C@@H](C2)N3C)c2ccccc21 (some centres undefined) | 5-hydroxytryptamine receptor 4 (Mus musculus) | 1.61
CCN(CC)CCOC(=O)c1cc(Cl)c(N)cc1OC | 5-hydroxytryptamine receptor 4 (Mus musculus) | 0.89
NCCc1c[nH]c2ccc(O)cc12 [[3H]-5-HT] | 5-hydroxytryptamine receptor 4 (Mus musculus) | 1.75
Cn1cc(C(=O)OCC2CCN(CCNS(C)(=O)=O)CC2)c2ccccc21 | 5-hydroxytryptamine receptor 4 (Mus musculus) | -0.70
